# EXPERIMENTAL_TARGET: histone deacetylase 1 (HDAC1) (Homo sapiens)
# Sequence (Q13547 whole entry): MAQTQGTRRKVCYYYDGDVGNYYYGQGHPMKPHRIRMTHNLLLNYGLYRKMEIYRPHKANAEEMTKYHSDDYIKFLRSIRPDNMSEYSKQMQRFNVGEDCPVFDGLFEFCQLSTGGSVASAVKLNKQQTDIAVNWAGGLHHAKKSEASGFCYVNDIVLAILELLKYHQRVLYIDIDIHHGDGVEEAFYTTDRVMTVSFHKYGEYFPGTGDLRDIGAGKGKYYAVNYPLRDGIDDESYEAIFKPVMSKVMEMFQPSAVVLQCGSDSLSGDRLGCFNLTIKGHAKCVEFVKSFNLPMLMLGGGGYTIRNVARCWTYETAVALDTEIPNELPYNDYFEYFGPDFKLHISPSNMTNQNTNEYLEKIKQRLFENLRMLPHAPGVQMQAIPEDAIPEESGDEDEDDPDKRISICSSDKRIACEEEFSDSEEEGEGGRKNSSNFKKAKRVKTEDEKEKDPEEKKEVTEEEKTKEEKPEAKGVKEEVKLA
VALUE_TYPE: pIC50
Entry type: numeric. Quantity: pIC50, the -log10 of concentration in molar units.

Incoming: Which pIC50 reading was recorded for the compound CC(=NN=c1[nH]c(C)c(N=Nc2ccc(Br)cc2)s1)c1c(O)c2ccccc2oc1=O ?
Outgoing: 5.99

Proceed to the following item.
Incoming: Which pIC50 reading was recorded for the compound CC(=NN=c1sc(N=Nc2ccc(Br)cc2)c(C)n1C)c1c(O)c2ccccc2oc1=O ?
Outgoing: 5.41

----------
# Tested on: HCT-116 (human colorectal carcinoma) cells
# ASSAY: Antiproliferative activity, LDH release assay, HCT-116
# Assay type: cell-based
# CONDITION_DETAILS: HCT-116, 48 h, read-out: IC50 (μM) ± SD HCT-116
Entries annotated with measured IC50

Example entries begin here.
Incoming: Which IC50 reading was recorded for the molecule CC(=NN=c1sc(N=Nc2ccc(Br)cc2)c(C)n1C)c1c(O)c2ccccc2oc1=O ?
Outgoing: 31.8 µM

Incoming: Query COc1cccc2c1C(=O)c1c(O)c3c(c(O)c1C2=O)C[C@@](O)(C(=O)CO)C[C@@H]3O[C@H]1C[C@H](N)[C@H](O)[C@H](C)O1 [Doxorubicin, reference compound] next
Outgoing: 6.5 µM

Incoming: Query CC(=NN=c1[nH]c(C)c(N=Nc2ccc([N+](=O)[O-])cc2[N+](=O)[O-])s1)c1c(O)c2ccccc2oc1=O next
Outgoing: 2.8 µM

Incoming: Query CCn1c(C)c(N=Nc2ccc(F)cc2)sc1=NN=C(C)c1c(O)c2ccccc2oc1=O next
Outgoing: 3.1 µM

Incoming: Query CCn1c(C)c(N=Nc2ccc([N+](=O)[O-])cc2[N+](=O)[O-])sc1=NN=C(C)c1c(O)c2ccccc2oc1=O next
Outgoing: 2.9 µM

Further cases:
Incoming: Which IC50 reading was recorded for the molecule CCn1c(C)c(N=Nc2ccc(Cl)cc2)sc1=NN=C(C)c1c(O)c2ccccc2oc1=O ?
Outgoing: 2.8 µM

Incoming: Query CCn1c(C)c(N=Nc2ccc(OC)cc2)sc1=NN=C(C)c1c(O)c2ccccc2oc1=O next
Outgoing: 3.1 µM

Incoming: Query COc1ccc(N=Nc2sc(=NN=C(C)c3c(O)c4ccccc4oc3=O)n(C)c2C)cc1 next
Outgoing: 2.6 µM

Incoming: Query COc1ccc(N=Nc2sc(=NN=C(C)c3c(O)c4ccccc4oc3=O)[nH]c2C)cc1 next
Outgoing: 3.2 µM

Incoming: Query CCn1c(C)c(N=Nc2ccc(Br)cc2)sc1=NN=C(C)c1c(O)c2ccccc2oc1=O next
Outgoing: 29.8 µM

Incoming: Query CC(=NN=c1[nH]c(C)c(N=Nc2ccc(Br)cc2)s1)c1c(O)c2ccccc2oc1=O next
Outgoing: 33.8 µM

Incoming: Query CC(=NN=c1sc(N=Nc2ccc(F)cc2)c(C)n1C)c1c(O)c2ccccc2oc1=O next
Outgoing: 3 µM

----------
Let's go through some recorded IC50 values for epidermal growth factor receptor (EGFR) (Homo sapiens) together.
Provide the reading as a plain figure in nM.

Incoming: Which IC50 reading was recorded for the compound CC(=NN=c1[nH]c(C)c(N=Nc2ccc(Br)cc2)s1)c1c(O)c2ccccc2oc1=O ?
Outgoing: 80

Proceed to the following item.
Incoming: Which IC50 reading was recorded for the compound CC(=NN=c1sc(N=Nc2ccc(Br)cc2)c(C)n1C)c1c(O)c2ccccc2oc1=O ?
Outgoing: 350

----------
# Tested on: MCF-7 (human breast adenocarcinoma) cells
# ASSAY: Antiproliferative activity, LDH release assay, MCF-7
# Format: cell-based
# CONDITION_DETAILS: MCF7, 48 h, read-out: IC50 (μM) ± SD MCF-7
VALUE_TYPE: IC50 (µM)
Provide the reading as a plain figure in µM.

Incoming: Which IC50 reading was recorded for the compound COc1cccc2c1C(=O)c1c(O)c3c(c(O)c1C2=O)C[C@@](O)(C(=O)CO)C[C@@H]3O[C@H]1C[C@H](N)[C@H](O)[C@H](C)O1 [Doxorubicin, reference compound] ?
Outgoing: 5.6

Incoming: Query CCn1c(C)c(N=Nc2ccc(Cl)cc2)sc1=NN=C(C)c1c(O)c2ccccc2oc1=O next
Outgoing: 4.8

Proceed to the following item.
Incoming: Which IC50 reading was recorded for the compound CC(=NN=c1[nH]c(C)c(N=Nc2ccc([N+](=O)[O-])cc2[N+](=O)[O-])s1)c1c(O)c2ccccc2oc1=O ?
Outgoing: 5.1

----------
Entries annotated with measured IC50
# System: MCF-7 (human breast adenocarcinoma) cells
# ASSAY: Antiproliferative activity, LDH release assay, MCF-7
# Type: cell-based
# CONDITION_DETAILS: MCF7, 48 h, read-out: IC50 (μM) ± SD MCF-7
Provide the reading as a plain figure in µM.

Example entries begin here.
Incoming: Which IC50 reading was recorded for the compound CCn1c(C)c(N=Nc2ccc(F)cc2)sc1=NN=C(C)c1c(O)c2ccccc2oc1=O ?
Outgoing: 3

Incoming: Query CC(=NN=c1[nH]c(C)c(N=Nc2ccc(Br)cc2)s1)c1c(O)c2ccccc2oc1=O next
Outgoing: 12.7

Incoming: Query CCn1c(C)c(N=Nc2ccc(OC)cc2)sc1=NN=C(C)c1c(O)c2ccccc2oc1=O next
Outgoing: 2.6

Proceed to the following item.
Incoming: Which IC50 reading was recorded for the compound CC(=NN=c1[nH]c(C)c(N=Nc2ccc(Cl)cc2)s1)c1c(O)c2ccccc2oc1=O ?
Outgoing: 3.1

----------
# System: HCT-116 (human colorectal carcinoma) cells
# ASSAY: Antiproliferative activity, LDH release assay, HCT-116
# Format: cell-based
# CONDITION_DETAILS: HCT-116, 48 h, read-out: IC50 (μM) ± SD HCT-116
VALUE_TYPE: IC50

Incoming: Which IC50 reading was recorded for the compound CC(=NN=c1sc(N=Nc2ccc(Cl)cc2)c(C)n1C)c1c(O)c2ccccc2oc1=O ?
Outgoing: 11.6 µM

Incoming: Query CC(=NN=c1[nH]c(C)c(N=Nc2ccc(Cl)cc2)s1)c1c(O)c2ccccc2oc1=O next
Outgoing: 12.7 µM

Proceed to the following item.
Incoming: Which IC50 reading was recorded for the compound CC(=NN=c1[nH]c(C)c(N=Nc2ccc(F)cc2)s1)c1c(O)c2ccccc2oc1=O ?
Outgoing: 2.8 µM

The values you see were collected from paper PMC12423761.
